Source listed as ChEMBL document CHEMBL4513216.

- test-summary: Toxicity liver stage against HepG2, at 10uM
- Assay type: cell-based
- Parameters: test concentration 10 uM, cell line HepG2-A16-CD81EGFP
- study-conditions: human, HepG2-A16-CD81EGFP cells; read-out: INHIBITION
endpoint: cytotoxicity at 10 µM (%)
# unit: % | format: bare number

compound	cytotoxicity at 10 µM (%)
O=C1CC(c2ccsc2)c2c(n(C3CCOCC3)[nH]c2=O)N1 (stereo not given)	0.847
N#Cc1ccc(C(=O)N2CCCSCC2CN2CCCC2)cc1 (stereo not given)	10.1

Query block: Hello, please tell me recorded cytotoxicity at 10 µM for this one: CC(C)NC(=O)CN(C)C1CCN(c2cnc3ccccc3n2)CC1
Result block: -6.14

Query block: Hello, please tell me recorded cytotoxicity at 10 µM for this one: CN1CCC(C(=O)NCCC2CN(c3cnn(C)c(=O)c3)CCO2)CC1 (stereo not given)
Result block: 5.75

Query block: Hello, please tell me recorded cytotoxicity at 10 µM for this one: CN(CCNC(=O)c1ccnc(-n2ccnc2)c1)C1CC1
Result block: 3.31

Query block: Hello, please tell me recorded cytotoxicity at 10 µM for this one: Cn1c2c(ccc1=O)CC(NC(=O)Cc1ccsc1)CC2 (stereo not given)
Result block: 4.08

Query block: Hello, please tell me recorded cytotoxicity at 10 µM for this one: O=C(CCC1CCCC1)N1C[C@@H]2CC[C@H]1CN(Cc1ccncc1)C2
Result block: -3.76

Query block: Hello, please tell me recorded cytotoxicity at 10 µM for this one: CCOc1ccc(C(=O)N2Cc3cnc(CC)nc3C2)o1
Result block: 3.34

Query block: Hello, please tell me recorded cytotoxicity at 10 µM for this one: CNC(=O)N1CCOCC1c1c(C)nn(C)c1C (stereo not given)
Result block: -7.11

Query block: Hello, please tell me recorded cytotoxicity at 10 µM for this one: COc1ccc(-c2noc(CN3CC(n4cccn4)C3)n2)c(OC)c1
Result block: -11.2

Query block: Hello, please tell me recorded cytotoxicity at 10 µM for this one: O=S(=O)(N1CCC(n2cccc2)CC1)N1CCCC1c1ccco1 (stereo not given)
Result block: 12.7

Query block: Hello, please tell me recorded cytotoxicity at 10 µM for this one: Cn1cc(CN2CCC[C@]3(C(=O)O)CN(c4cnccn4)CC[C@@H]23)cn1
Result block: -0.226

Query block: Hello, please tell me recorded cytotoxicity at 10 µM for this one: CCC(CC)C(=O)NCc1cn2cc(Br)ccc2n1
Result block: 5.17

Query block: Hello, please tell me recorded cytotoxicity at 10 µM for this one: CN(CCCNC(=O)N1CCCC1c1ccsc1)c1ccccn1 (stereo not given)
Result block: -4.53
